All figures here come from patent EP4803520A1.

- method: Rat pharmacokinetics
- Type: in vivo
- conditions: plasma, po, SD rats, ig 0.5 mg/kg
measureName: Cmax (ng/mL)

* CNC(=O)n1cc2c(n1)CN([C@H]1CN(Cc3ccc4cc(C(F)(F)F)c(=O)[nH]c4c3F)[C@H]1C)C2 | 208

###

- assayedSystem: PARP2 (Homo sapiens, UniProt Q9UGN5)
- Sequence (Q9UGN5 whole entry): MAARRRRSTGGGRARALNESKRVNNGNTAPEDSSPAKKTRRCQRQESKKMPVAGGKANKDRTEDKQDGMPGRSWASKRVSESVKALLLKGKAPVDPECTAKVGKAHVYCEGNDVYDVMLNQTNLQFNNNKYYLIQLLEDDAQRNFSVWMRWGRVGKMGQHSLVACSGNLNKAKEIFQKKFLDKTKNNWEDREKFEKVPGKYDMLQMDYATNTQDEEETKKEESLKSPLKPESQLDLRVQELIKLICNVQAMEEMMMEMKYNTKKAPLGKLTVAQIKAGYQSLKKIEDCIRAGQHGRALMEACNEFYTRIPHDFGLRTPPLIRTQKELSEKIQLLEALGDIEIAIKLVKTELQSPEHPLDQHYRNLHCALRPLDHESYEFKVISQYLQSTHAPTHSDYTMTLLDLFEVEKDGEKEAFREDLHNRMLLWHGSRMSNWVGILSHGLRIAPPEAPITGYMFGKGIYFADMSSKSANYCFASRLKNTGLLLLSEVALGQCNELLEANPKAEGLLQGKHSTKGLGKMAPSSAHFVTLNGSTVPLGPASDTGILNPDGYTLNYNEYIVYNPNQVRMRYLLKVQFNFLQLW
measureName: IC50

* CNC(=O)n1cc2c(n1)CN([C@H]1CN(Cc3ccc4cc(C(F)(F)F)c(=O)[nH]c4c3F)[C@H]1C)C2 [Compound 55] | > 500 nM

###

- method: Mouse pharmacokinetics
- Format: in vivo
- conditions: plasma, po, ICR mice, ig 0.1 mg/kg
measureName: Cmax (ng/mL)

- CNC(=O)n1cc2c(n1)CN([C@H]1CN(Cc3ccc4cc(C(F)(F)F)c(=O)[nH]c4c3F)[C@H]1C)C2: 331

###

- method: Rat pharmacokinetics
- Type: in vivo
- conditions: plasma, SD rats, iv 0.1 mg/kg
measureName: half-life (h)

* CNC(=O)n1cc2c(n1)CN([C@H]1CN(Cc3ccc4cc(C(F)(F)F)c(=O)[nH]c4c3F)[C@H]1C)C2 [Compound 55] | 4.74

###

- method: Experiment on brain distribution in rats
- Format: in vivo, SD rats
- conditions: rat, po; SD rats, ig 2 mg/kg, brain homogenate
measureName: AUC at 8 h (ng·h/mL)

* CNC(=O)n1cc2c(n1)CN([C@H]1CN(Cc3ccc4cc(C(F)(F)F)c(=O)[nH]c4c3F)[C@H]1C)C2 | 453

###

- method: Experiment on brain distribution in rats
- Assay type: in vivo, SD rats
- conditions: rat, brain, po, 2 mg/kg; read-out: Brain-to-blood ratio
measureName: Kp at 8 h

* CNC(=O)n1cc2c(n1)CN([C@H]1CN(Cc3ccc4cc(C(F)(F)F)c(=O)[nH]c4c3F)[C@H]1C)C2 | 0.082

###

- method: Rat pharmacokinetics
- Assay type: in vivo
- conditions: plasma, po, SD rats, ig 0.5 mg/kg
measureName: AUC(0-t) (ng·h/mL)

* CNC(=O)n1cc2c(n1)CN([C@H]1CN(Cc3ccc4cc(C(F)(F)F)c(=O)[nH]c4c3F)[C@H]1C)C2 | 1710

###

- method: Mouse pharmacokinetics
- Format: in vivo
- conditions: plasma, po, ICR mice, ig 0.1 mg/kg
measureName: AUC(0-t) (ng·h/mL)

• CNC(=O)n1cc2c(n1)CN([C@H]1CN(Cc3ccc4cc(C(F)(F)F)c(=O)[nH]c4c3F)[C@H]1C)C2 = 5490

###

- method: Rat pharmacokinetics
- Assay type: in vivo
- conditions: plasma, SD rats, iv 0.1 mg/kg
measureName: AUC(0-t) (ng·h/mL)

• CNC(=O)n1cc2c(n1)CN([C@H]1CN(Cc3ccc4cc(C(F)(F)F)c(=O)[nH]c4c3F)[C@H]1C)C2 [Compound 55] = 326

###

- method: Rat pharmacokinetics
- Type: in vivo
- conditions: plasma, po, SD rats, ig 0.5 mg/kg
measureName: half-life (h)

• CNC(=O)n1cc2c(n1)CN([C@H]1CN(Cc3ccc4cc(C(F)(F)F)c(=O)[nH]c4c3F)[C@H]1C)C2 [Compound 55] = 4.76

###

- method: Mouse pharmacokinetics
- Assay type: in vivo
- conditions: plasma, ICR mice, iv 0.1 mg/kg
measureName: AUC(0-t)

- CNC(=O)n1cc2c(n1)CN([C@H]1CN(Cc3ccc4cc(C(F)(F)F)c(=O)[nH]c4c3F)[C@H]1C)C2 [Compound 55]: 6650 ng·h/mL
